Test: Restrictive medium S. cerevisiae growth inhibition, OD615, pilot screen of yeast lifespan reduction project, restrictive growth control (AID 706);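 note: modified DeaD lifespan yeast strain shifted to restrictive glucose medium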
Settings: OD615, 48 h, at 10 µM, stronger effect = higher value
Recorded growth inhibition values for a group of compounds are listed next.
Value expressed in %; do not type the unit.

In the examples that follow, each entry is paired with its recorded growth inhibition.
CC(C)c1nnc(NC(=O)CN2C(=O)c3ccccc3C2=O)s1 = -6.92
CCCSCCCNC(=O)Cn1cc2c(n1)CCCCC2 = 5.24
Cc1[nH]nc2c1/C(=N\O)CC(C)(C)C2 = -8.1
Cc1cc(C)nc(NS(=O)(=O)c2ccc(NC(=O)CCCN3C(=O)c4ccccc4C3=O)cc2)n1 = -0.225

(Q) Please report the measured growth inhibition for Nc1ccc(C(=O)c2ccc3c(c2)OCCO3)cc1N
(A) 6.96

(Q) Indicate the recorded growth inhibition value for this compound: Cc1cc(C)n(-c2nc3ccccc3nc2N2CCOCC2)n1
(A) 7.74

(Q) Fill in reported growth inhibition for this entry: CC(C)C(NS(=O)(=O)c1ccc2c(c1)oc(=O)n2C)C(=O)N1CCN(C2CCCCC2)CC1 (stereo unspecified)
(A) -9.46

(Q) Could you please provide reported growth inhibition for COc1ccc(-c2c(C)oc3cc(O)cc(O)c3c2=O)cc1OC ? Thanks!
(A) -5.23

(Q) Given the compound CCCCn1c(CN2CCOCC2)nc2c1c(=O)n(C)c(=O)n2C , write its reported growth inhibition.
(A) -7.03

(Q) Please indicate growth inhibition recorded for CCOc1ccc(OCC)c(S(=O)(=O)NCCCN2CCOCC2)c1
(A) -12.2

(Q) Respond only with growth inhibition recorded for O=C(CCCn1c(=O)oc2ccccc21)N1CCc2ccccc2C1
(A) -14.1

The origin of these recorded values is PubChem BioAssay.
